Test system: CJLP17 strain
Assay: Antibiotic susceptibility test with antibiotic discs
Format: cell-based, Lactobacillus plantarum
Settings: antibiotic disc on CJLP17 lawn, Mueller Hinton II medium, 37° C., 24 hours
// label = criterion met if Radius of Growth Inhibition Area Centered Around Antibiotics is not less than 4 mm, otherwise criterion not met

>  <COMPOUND>
[H]/N=C(/N)N[C@H]1[C@H](O)[C@@H](O)[C@H](O[C@@H]2O[C@@H](C)[C@](O)(C=O)[C@H]2O[C@@H]2O[C@@H](CO)[C@H](O)[C@@H](O)[C@@H]2NC)[C@@H](N/C(N)=N\[H])[C@@H]1O [DA2 (Streptomycin), Streptomycin]

>  <GROUP_LABEL>
criterion met

$$$$
>  <COMPOUND>
CC1(C)S[C@@H]2[C@H](NC(=O)[C@H](N)c3ccccc3)C(=O)N2[C@H]1C(=O)O

>  <GROUP_LABEL>
criterion met

$$$$
>  <COMPOUND>
CC[C@H]1OC(=O)[C@H](C)[C@@H](O[C@H]2C[C@@](C)(OC)[C@@H](O)[C@H](C)O2)[C@H](C)[C@@H](O[C@@H]2O[C@H](C)C[C@H](N(C)C)[C@H]2O)[C@](C)(O)C[C@@H](C)C(=O)[C@H](C)[C@@H](O)[C@]1(C)O [E15 (Erythromycin), Erythromycin]

>  <GROUP_LABEL>
criterion met

$$$$
>  <COMPOUND>
O=C(N[C@H](CO)[C@H](O)c1ccc([N+](=O)[O-])cc1)C(Cl)Cl

>  <GROUP_LABEL>
criterion not met

$$$$
>  <COMPOUND>
CCC[C@@H]1C[C@@H](C(=O)N[C@@H]([C@H]2O[C@H](SC)[C@H](O)[C@@H](O)[C@H]2O)[C@H](C)Cl)N(C)C1

>  <GROUP_LABEL>
criterion met

$$$$
>  <COMPOUND>
NC[C@H]1O[C@H](O[C@H]2[C@H](O)[C@@H](O[C@H]3O[C@H](CO)[C@@H](O)[C@H](N)[C@H]3O)[C@H](N)C[C@@H]2N)[C@H](O)[C@@H](O)[C@@H]1O

>  <GROUP_LABEL>
criterion not met

$$$$
